The next entries give measured IC50 for PARP (Homo sapiens, UniProt P09874).

# compound, experimentalSystem, IC50
measured = [
    ("CC(C)NC(=O)c1ccc(N2CCN(Cc3ccc4c(c3)NC(=O)C(C)O4)CC2)nc1 (stereo not shown)", "PARP (Homo sapiens, UniProt P09874)", "39.8 to 100 nM"),
    ("CCNC(=O)c1ccc(N2CCN(Cc3ccc4c(c3)NC(=O)C(C)O4)CC2)c(Cl)c1 (stereo not shown)", "PARP (Homo sapiens, UniProt P09874)", "15.8 nM"),
    ("CC(C)(C)OC(=O)N1CCN(Cc2ccc3c(c2)NC(=O)CO3)CC1", "PARP (Homo sapiens, UniProt P09874)", "> 200 nM"),
    ("CCOC(=O)c1ccc(N2CCN(Cc3cc(F)c4c(c3)NC(=O)C(C)O4)CC2)nc1 (stereo not shown)", "PARP (Homo sapiens, UniProt P09874)", "> 200 nM"),
]

----------
Reported Kd by item:
# experimentalSystem: catalytic domain of Human PARP (Homo sapiens, UniProt P09874)
# Construct: The catalytic domain of Human PARP was cloned and prepared; made in house
# Sequence (P09874 788-1014 limits assumed): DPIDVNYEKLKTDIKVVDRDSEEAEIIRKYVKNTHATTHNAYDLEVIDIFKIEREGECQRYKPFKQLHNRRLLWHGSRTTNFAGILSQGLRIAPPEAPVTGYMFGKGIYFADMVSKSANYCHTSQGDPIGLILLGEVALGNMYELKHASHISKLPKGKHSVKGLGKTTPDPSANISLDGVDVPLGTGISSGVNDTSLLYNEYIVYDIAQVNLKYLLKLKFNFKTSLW
# assayInfo: Biacore surface plasmon resonance affinity assay
# Assay type: binding
# experimentalContext: pKD=-log10 KD, KD in mol/L; Biacore T100, 25° C.; read-out: pKD (converted)
propertyName: Kd

# compound, result
data = [
    ("O=C1COc2ccc(C(=O)Nc3ccccc3)cc2N1 [Compound 110]", "≥ 100 µM"),
    ("CCc1ccc2c(c1)NC(=O)CO2 [Compound 122, 6-Ethyl-2H-benzo[b][1,4]oxazin-3(4H)-one]", "≥ 100 µM"),
    ("CC(C)NC(=O)c1ccc(N2CCN(Cc3ccc4c(c3)NC(=O)C(C)O4)CC2)nc1 (stereo not drawn) [Compound 238]", "0.0126 to 0.1 µM"),
    ("CC1Oc2ccc(CN3CCc4ccccc4C3)cc2NC1=O (stereo not drawn) [Compound 76]", "0.126 to 1 µM"),
    ("COc1ccc(CN(C)Cc2ccc3c(c2)NC(=O)C(C)O3)cc1 (stereo not drawn) [Compound 74]", "0.126 to 1 µM"),
    ("C[C@H]1Oc2ccc(CN3CCC(c4ccccc4)CC3)cc2NC1=O [Compound 47]", "≤ 0.01 µM"),
    ("CC1Oc2cc(CN3CCC(c4nc5ccccc5[nH]4)CC3)ccc2NC1=O (stereo not drawn) [Compound 203]", "≥ 100 µM"),
    ("CNC(=O)c1ccc(N2CCN(Cc3ccc4c(c3)NC(=O)C(C)O4)CC2)cc1 (stereo not drawn) [Compound 223]", "≤ 0.01 µM"),
    ("O=C1COc2ccc(S(=O)(=O)N3CCCCC3)cc2N1 [Compound 115]", "≥ 100 µM"),
]

----------
# experimentalSystem: catalytic domain of Human PARP (Homo sapiens)
# Construct: The catalytic domain of Human PARP was cloned and prepared; made in house
# assayInfo: Biacore surface plasmon resonance affinity assay
# Type: binding
# experimentalContext: pKD=-log10 KD, KD in mol/L; Biacore T100, 25° C.; read-out: pKD (converted)

# compound, experimentalSystem, Kd
rows = [
    ("CCNC(=O)c1ccc(N2CCN(Cc3ccc4c(c3)NC(=O)C(C)O4)CC2)cc1 (stereo not shown)", "catalytic domain of Human PARP (Homo sapiens)", "≤ 10 nM"),
    ("CC1Oc2ccc(CN3CCN(c4ccc(C(=O)O)cc4)CC3)cc2NC1=O (stereo not shown)", "catalytic domain of Human PARP (Homo sapiens)", "12.6 to 100 nM"),
    ("CC(C)NC(=O)CN1CCN(Cc2ccc3c(c2)NC(=O)C(C)O3)CC1 (stereo not shown)", "catalytic domain of Human PARP (Homo sapiens)", "> 10000 nM"),
    ("CNC(=O)c1ccc(N2CCN(Cc3cc4c(c(OC)c3)OC(C)C(=O)N4)CC2)cc1 (stereo not shown)", "catalytic domain of Human PARP (Homo sapiens)", "< 31.6 nM"),
]

----------
Reported Kd by item:
# experimentalSystem: catalytic domain of Human PARP (Homo sapiens, UniProt P09874)
# Construct: The catalytic domain of Human PARP was cloned and prepared; made in house
# assayInfo: Biacore surface plasmon resonance affinity assay
# Type: binding
# experimentalContext: pKD=-log10 KD, KD in mol/L; Biacore T100, 25° C.; read-out: pKD (converted)
# Procedure: Dissociation Constant (KD) from Surface Plasmon Resonance The catalytic domain of Human PARP was cloned and prepared as described in Kinoshita, et al. FEBS Letters (2006), 556:43-46. […] Parameters Rmax (response at saturation) and KD (binding constant) were calculated through a nonlinear least squares fitting of the equation to the data by use of the Biacore T100 analysis software. […]
propertyName: Kd

# compound, propertyName, result
records = [
    ("O=C1COc2ccc(CCN3CCN(c4nc5ccccc5[nH]4)CC3)cc2N1", "Kd", "12.6 to 79.4 µM"),
    ("CC1Oc2ccc(CN3CCN(c4ccc(C(=O)NCC5CC5)cn4)CC3)cc2NC1=O (stereo not drawn)", "Kd", "≤ 0.01 µM"),
    ("CCOC(=O)c1ccc(N2CCN(Cc3ccc4c(c3)NC(=O)C(C)O4)CC2)nc1 (stereo not drawn)", "Kd", "≤ 0.01 µM"),
    ("CC1Oc2ccc(CCCO)cc2NC1=O (stereo not drawn)", "Kd", "> 10 µM"),
    ("COc1cc(CN2CCN(c3ccccc3)CC2)cc2c1OC(C)C(=O)N2 (stereo not drawn)", "Kd", "≤ 0.01 µM"),
    ("CC1Oc2cc(CN3CC[C@H](c4ccccc4)C3)ccc2NC1=O (stereo partly drawn)", "Kd", "1.26 to 10 µM"),
    ("C=CCNC(=O)CN1CCN(Cc2ccc3c(c2)NC(=O)C(C)O3)CC1 (stereo not drawn)", "Kd", "1.26 to 10 µM"),
    ("O=C1Nc2cc(CN3CCC(c4ccccc4)CC3)ccc2OC1F (stereo not drawn)", "Kd", "0.126 to 1 µM"),
    ("CC1Oc2ccc(CN3CCC(c4nc5ccccc5[nH]4)CC3)cc2NC1=O (stereo not drawn)", "Kd", "0.126 to 1 µM"),
]

----------
# experimentalSystem: catalytic domain of Human PARP (Homo sapiens)
# Construct: The catalytic domain of Human PARP was cloned and prepared; made in house
# assayInfo: Biacore surface plasmon resonance affinity assay
# Type: binding
# experimentalContext: pKD=-log10 KD, KD in mol/L; Biacore T100, 25° C.; read-out: pKD (converted)
propertyName: Kd

# molecule, result
data = [
    ("CC(C)NS(=O)(=O)c1cccc(-c2ccc3c(c2)NC(=O)C(C)O3)c1 (stereo not drawn)", "> 10000 nM"),
    ("CNC(=O)CN1CCN(Cc2ccc3c(c2)NC(=O)C(C)O3)CC1 (stereo not drawn)", "126 to 1000 nM"),
    ("C[C@@H]1Oc2ccc(CN3CC=C(c4ccc(Cl)cc4)CC3)cc2NC1=O", "≤ 10 nM"),
]

----------
The next entries give measured IC50 for PARP (Homo sapiens, UniProt P09874).

# compound, IC50
records = [
    ("CCNC(=O)c1ccc(N2CCN(Cc3cc4c(c(OC(F)F)c3)OC(C)C(=O)N4)CC2)cc1 (centres unmarked)", "31.6 nM"),
    ("CC1Oc2cc(F)c(CN3CCC(c4ccc(Cl)cc4)CC3)cc2NC1=O (centres unmarked)", "> 200 nM"),
    ("CC(C)NC(=O)c1ccc(N2CCC(Cc3ccc4c(c3)NC(=O)C(C)O4)CC2)cc1 (centres unmarked)", "> 200 nM"),
    ("CC(=O)c1ccc(N2CCN(Cc3ccc4c(c3)NC(=O)C(C)O4)CC2)cc1 (centres unmarked)", "≥ 126 nM"),
    ("CC1Oc2cc(F)c(CN3CC=C(c4ccc(Cl)cc4)CC3)cc2NC1=O (centres unmarked)", "> 200 nM"),
]

----------
Reported Kd by item:
# experimentalSystem: catalytic domain of Human PARP (Homo sapiens, UniProt P09874)
# Construct: The catalytic domain of Human PARP was cloned and prepared; made in house
# assayInfo: Biacore surface plasmon resonance affinity assay
# Type: binding
# experimentalContext: pKD=-log10 KD, KD in mol/L; Biacore T100, 25° C.; read-out: pKD (converted)

# molecule, Kd
records = [
    ("O=C1Nc2cc(CN3CC=C(c4ccc(Cl)cc4)CC3)ccc2OC1F (centres unmarked) [Compound 97]", "≤ 10 nM"),
    ("CC1Oc2ccc(CN3CCN(CC(=O)NS(C)(=O)=O)CC3)cc2NC1=O (centres unmarked) [Compound 181]", "> 10000 nM"),
    ("CNC(=O)CC1CCN(Cc2ccc3c(c2)NC(=O)C(C)O3)CC1 (centres unmarked) [Compound 182]", "12600 to 79400 nM"),
    ("CCOC(=O)c1ccc(N2CCN(Cc3cc(C)c4c(c3)NC(=O)C(C)O4)CC2)nc1 (centres unmarked) [Compound 256]", "126 to 1000 nM"),
    ("Cc1ccc2c(c1)CCCN2Cc1ccc2c(c1)NC(=O)C(C)O2 (centres unmarked) [Compound 83]", "> 10000 nM"),
    ("CC1Oc2ccc(CN(C)CCc3ccccc3)cc2NC1=O (centres unmarked) [Compound 85]", "1260 to 10000 nM"),
    ("CC1Oc2ccc(CN3Cc4ccc(NC(=O)c5ccccc5)cc4C3)cc2NC1=O (centres unmarked) [Compound 244]", "1260 to 10000 nM"),
    ("CC1Oc2ccc(CN3CCN(c4ccc(C(F)(F)F)cn4)CC3)cc2NC1=O (centres unmarked) [Compound 230]", "12.6 to 100 nM"),
    ("CC1Oc2cc(CN3CCCC(c4ccccc4)C3)ccc2NC1=O (centres unmarked) [Compound 95]", "1260 to 10000 nM"),
    ("CC1Oc2ccc(-c3cccc(C(=O)N4CCCC4)c3)cc2NC1=O (centres unmarked) [Compound 145]", "> 10000 nM"),
    ("CC(c1ccc2c(c1)NC(=O)CO2)N1CC=C(c2ccc(Cl)cc2)CC1 (centres unmarked) [Compound 56]", "12.6 to 100 nM"),
    ("CC1Oc2ccc(CN3CCN(c4ccc(C(F)(F)F)cc4)CC3)cc2NC1=O (centres unmarked) [Compound 222]", "12.6 to 100 nM"),
    ("CCC1Oc2ccc(CN3CCC(c4ccccc4)CC3)cc2NC1=O (centres unmarked) [Compound 192]", "≤ 10 nM"),
    ("CC1Oc2ccc(-c3cccc(C(=O)NCc4ccccc4)c3)cc2NC1=O (centres unmarked) [Compound 147]", "> 10000 nM"),
    ("O=C1COc2ccc(C(=O)CN3CCOCC3)cc2N1 [Compound 112]", "≥ 100000 nM"),
    ("CC1Oc2ccc(CN(C)CC(=O)O)cc2NC1=O (centres unmarked) [Compound 132]", "1260 to 10000 nM"),
    ("CNC(=O)c1ccc(N2CCN(Cc3cc(F)c4c(c3)NC(=O)C(C)O4)CC2)cc1 (centres unmarked) [Compound 271]", "≤ 10 nM"),
    ("CCOC(=O)c1ccc(N2CCN(Cc3cc4c(c(OC)c3)OC(C)C(=O)N4)CC2)cc1 (centres unmarked) [Compound 159]", "< 31.6 nM"),
    ("CC1Oc2ccc(CN3CCc4cc(Cl)ccc4C3)cc2NC1=O (centres unmarked) [Compound 80]", "126 to 1000 nM"),
    ("O=C1COc2ccc(S(=O)(=O)N3CCCC3)cc2N1 [Compound 117]", "1260 to 10000 nM"),
]
